Parameter: Ratio IC50. Scope: all listed entries.
- Test system: Escherichia coli
- TEST_SUMMARY: Ratio of IC50 for Escherichia coli RNA polymerase core enzyme to IC50 for Escherichia coli RNA polymerase holo enzyme

COMPOUND	Ratio IC50
CCCN(CCC)S(=O)(=O)c1ccc(C(=O)Nc2cc3ccccc3cc2C(=O)O)cc1	2.6
O=C(Nc1cc(Br)ccc1C(=O)O)c1ccc(-c2ccccc2)cc1	3
CO[C@H]1/C=C/O[C@@]2(C)Oc3c(C)c(O)c4c(O)c(c(/C=N/N5CCN(C)CC5)c(O)c4c3C2=O)NC(=O)/C(C)=C\C=C\[C@H](C)[C@H](O)[C@@H](C)[C@@H](O)[C@@H](C)[C@H](OC(C)=O)[C@@H]1C	1
O=C(Nc1ccccc1C(=O)O)c1ccc(-c2ccccc2)c(Oc2ccccc2)c1	3
O=C(Nc1cc(Cl)ccc1C(=O)O)c1ccc(-c2ccccc2)c(Oc2ccccc2)c1	2.9

* * *

- System: Escherichia coli
- TEST_SUMMARY: Antibacterial activity against Escherichia coli expressing TolC mutant
- Type: functional
MIC under 9 µg/mL gets 1, anything at or over 9 µg/mL gets 0.

COMPOUND	CATEGORY_LABEL
COc1ccc(NC(=O)c2ccc(-c3ccccc3)cc2)c(C(=O)O)c1	1
O=C(Nc1ccc(F)cc1C(=O)O)c1ccc(-c2ccccc2)cc1	1
O=C(Nc1ccc(Br)cc1C(=O)O)c1cccc(Cc2ccccc2)c1	1
COc1cccc(NC(=O)c2ccc(-c3ccccc3)cc2)c1C(=O)O	0
COc1cc(NC(=O)c2cccc(Oc3ccccc3)c2)c(C(=O)O)cc1OC	1
O=C(Nc1ccc(O)cc1C(=O)O)c1ccc(-c2ccccc2)cc1	0
O=C(Nc1ccc(OC(F)(F)F)cc1C(=O)O)c1ccc(-c2ccccc2)cc1	1
O=C(Nc1cccc(F)c1C(=O)O)c1ccc(-c2ccccc2)cc1	0
O=C(Nc1cc([N+](=O)[O-])ccc1C(=O)O)c1ccc(-c2ccccc2)cc1	0
O=C(Nc1cc(F)ccc1C(=O)O)c1ccc(-c2ccccc2)c(Oc2ccccc2)c1	0
O=C(Nc1cc(Br)ccc1C(=O)O)c1ccc(-c2ccccc2)cc1	1
N#Cc1ccc(NC(=O)c2ccc(-c3ccccc3)cc2)c(C(=O)O)c1	1
O=C(Nc1ccc(Cl)cc1C(=O)O)c1ccc(-c2ccccc2)cc1	1
CO[C@H]1/C=C/O[C@@]2(C)Oc3c(C)c(O)c4c(O)c(c(/C=N/N5CCN(C)CC5)c(O)c4c3C2=O)NC(=O)/C(C)=C\C=C\[C@H](C)[C@H](O)[C@@H](C)[C@@H](O)[C@@H](C)[C@H](OC(C)=O)[C@@H]1C	0

* * *

- System: Escherichia coli
- TEST_SUMMARY: Antibacterial activity against Escherichia coli expressing TolC mutant
- Assay type: functional
ASSAY_ENDPOINT: MIC (µg/mL)

In [3]: df
Out[3]:
                                    compound  assay_endpoint  qualifier_sign  test_result
 0  O=C(Nc1cc(Cl)ccc1C(=O)O)c1ccc(-c2ccccc2)cc1             MIC               =            3
 1              O=C(Nc1ccccc1C(=O)O)c1ccccc1             MIC               >          100
 2  O=C(Nc1ccc(C(F)(F)F)cc1C(=O)O)c1ccc(-c2ccccc2)cc1             MIC               =            2
 3  O=C(Nc1c(Cl)cccc1C(=O)O)c1ccc(-c2ccccc2)cc1             MIC               =           55
 4  COc1cc(NC(=O)c2ccc(-c3ccccc3)cc2)c(C(=O)O)cc1OC             MIC               =           19
 5  O=C(Nc1cc(-c2ccccc2)ccc1C(=O)O)c1cccc(Oc2ccccc2)c1             MIC               =            8
 6  Cc1ccc(NC(=O)c2ccc(-c3ccccc3)cc2)c(C(=O)O)c1             MIC               =            7
 7  O=C(Nc1cccc(Cl)c1C(=O)O)c1ccc(-c2ccccc2)cc1             MIC               =           57
 8  O=C(Nc1cc(Cl)ccc1C(=O)O)c1ccc(-c2ccccc2)c(Oc2ccccc2)c1             MIC               >           25
 9  O=C(Nc1cc(F)ccc1C(=O)O)c1ccc(-c2ccccc2)cc1             MIC               =            4
10   O=C(Nc1ccccc1C(=O)O)c1ccc(-c2ccccc2)cc1             MIC               =           13
